biological target: SMARCA4 (Homo sapiens, UniProt P51532); construct: SMARCA4-HiBiT knock-in Hela monoclonal cell (CS3023226); host or cells: HeLa monoclonal cells with heterozygous HiBiT knock-in at the endogenous SMARCA4 locus; assay: SMARCA4 HiBiT degradation assay in HeLa cells; format: cell-based; details: 18 hours, highest concentration 10 μM
Sequence (P51532 whole entry): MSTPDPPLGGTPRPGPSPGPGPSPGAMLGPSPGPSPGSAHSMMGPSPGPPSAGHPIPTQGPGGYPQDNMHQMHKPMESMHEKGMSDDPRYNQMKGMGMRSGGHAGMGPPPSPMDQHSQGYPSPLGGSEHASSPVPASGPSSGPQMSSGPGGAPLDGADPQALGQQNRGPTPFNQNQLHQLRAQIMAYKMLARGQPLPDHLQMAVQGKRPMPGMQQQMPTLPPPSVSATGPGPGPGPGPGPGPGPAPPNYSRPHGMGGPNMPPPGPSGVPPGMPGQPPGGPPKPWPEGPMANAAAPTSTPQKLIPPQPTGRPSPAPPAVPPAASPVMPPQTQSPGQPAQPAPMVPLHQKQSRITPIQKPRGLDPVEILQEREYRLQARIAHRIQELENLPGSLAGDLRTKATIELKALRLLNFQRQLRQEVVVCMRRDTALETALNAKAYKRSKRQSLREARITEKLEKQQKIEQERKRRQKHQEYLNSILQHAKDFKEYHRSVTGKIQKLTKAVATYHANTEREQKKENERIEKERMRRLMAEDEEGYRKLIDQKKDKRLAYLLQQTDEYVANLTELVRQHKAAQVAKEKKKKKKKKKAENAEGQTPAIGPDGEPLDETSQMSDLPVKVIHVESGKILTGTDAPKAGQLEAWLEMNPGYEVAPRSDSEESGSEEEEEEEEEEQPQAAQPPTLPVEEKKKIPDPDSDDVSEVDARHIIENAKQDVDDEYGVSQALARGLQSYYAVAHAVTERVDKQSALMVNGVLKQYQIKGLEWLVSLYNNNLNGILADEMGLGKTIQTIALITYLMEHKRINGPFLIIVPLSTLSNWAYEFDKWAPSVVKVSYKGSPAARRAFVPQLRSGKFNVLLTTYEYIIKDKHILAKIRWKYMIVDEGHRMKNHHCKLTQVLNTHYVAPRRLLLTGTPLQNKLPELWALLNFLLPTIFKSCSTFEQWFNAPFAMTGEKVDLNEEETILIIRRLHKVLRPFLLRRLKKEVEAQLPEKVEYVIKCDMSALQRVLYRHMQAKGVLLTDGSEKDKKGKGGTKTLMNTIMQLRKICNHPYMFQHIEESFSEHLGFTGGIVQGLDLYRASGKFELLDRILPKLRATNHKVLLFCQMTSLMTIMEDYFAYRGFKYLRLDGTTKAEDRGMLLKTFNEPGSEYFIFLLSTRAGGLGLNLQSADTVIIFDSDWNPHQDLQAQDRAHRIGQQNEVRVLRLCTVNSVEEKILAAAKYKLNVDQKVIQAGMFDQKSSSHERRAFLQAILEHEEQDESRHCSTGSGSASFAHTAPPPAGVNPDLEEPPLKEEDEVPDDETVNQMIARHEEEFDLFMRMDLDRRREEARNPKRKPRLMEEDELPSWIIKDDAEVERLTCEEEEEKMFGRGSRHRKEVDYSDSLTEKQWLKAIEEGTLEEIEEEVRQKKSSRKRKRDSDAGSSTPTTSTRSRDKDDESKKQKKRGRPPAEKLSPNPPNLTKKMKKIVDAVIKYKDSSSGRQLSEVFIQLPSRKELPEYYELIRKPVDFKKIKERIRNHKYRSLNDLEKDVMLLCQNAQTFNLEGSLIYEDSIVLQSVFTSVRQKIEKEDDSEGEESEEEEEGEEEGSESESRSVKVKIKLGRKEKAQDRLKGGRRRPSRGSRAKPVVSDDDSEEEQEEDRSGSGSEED
A collection of compounds and their measured Dmax

Example entries and their recorded answers appear below.
[[record]]
compound = "Cc1cc(O[C@@H]2C[C@@H]3CNc4nnc(-c5cc(F)cc(F)c5O)cc4N3C2)ncc1CN1CCC(c2ccc3c(c2)C(=O)N([C@H]2CCC(=O)NC2=O)C3)CC1 [Example 29]"
obs_value = "50 to 75%"

[[record]]
compound = "O=C1CCC(N2Cc3ccc(N4CCN(Cc5ccc(O[C@@H]6C[C@@H]7CNc8nnc(-c9cc(F)cc(F)c9O)cc8N7C6)nc5)CC4)cc3C2=O)C(=O)N1 (stereo partly drawn) [Example 33]"
obs_value = "> 75%"


[ask] Fill in the blank: the reported Dmax of Cc1nc(O[C@H]2CN3c4cc(-c5cccc(F)c5O)nnc4NC[C@@]3(C)C2)nc(C)c1CN1CCN(c2ccc3c(c2)C(=O)N([C@H]2CCC(=O)NC2=O)C3)CC1 [Example 75] is ____.
[reply] < 50%

* * *

target: SMARCA2 (Homo sapiens, UniProt P51531); construct: SMARCA2-HiBiT knock-in Hela monoclonal cell (CS302366); host or cells: HeLa monoclonal cells with heterozygous HiBiT knock-in at the endogenous SMARCA2 locus; assay: SMARCA2 HiBiT degradation assay in HeLa cells; format: cell-based; details: 18 hours, highest concentration 10 μM
Sequence (P51531 whole entry): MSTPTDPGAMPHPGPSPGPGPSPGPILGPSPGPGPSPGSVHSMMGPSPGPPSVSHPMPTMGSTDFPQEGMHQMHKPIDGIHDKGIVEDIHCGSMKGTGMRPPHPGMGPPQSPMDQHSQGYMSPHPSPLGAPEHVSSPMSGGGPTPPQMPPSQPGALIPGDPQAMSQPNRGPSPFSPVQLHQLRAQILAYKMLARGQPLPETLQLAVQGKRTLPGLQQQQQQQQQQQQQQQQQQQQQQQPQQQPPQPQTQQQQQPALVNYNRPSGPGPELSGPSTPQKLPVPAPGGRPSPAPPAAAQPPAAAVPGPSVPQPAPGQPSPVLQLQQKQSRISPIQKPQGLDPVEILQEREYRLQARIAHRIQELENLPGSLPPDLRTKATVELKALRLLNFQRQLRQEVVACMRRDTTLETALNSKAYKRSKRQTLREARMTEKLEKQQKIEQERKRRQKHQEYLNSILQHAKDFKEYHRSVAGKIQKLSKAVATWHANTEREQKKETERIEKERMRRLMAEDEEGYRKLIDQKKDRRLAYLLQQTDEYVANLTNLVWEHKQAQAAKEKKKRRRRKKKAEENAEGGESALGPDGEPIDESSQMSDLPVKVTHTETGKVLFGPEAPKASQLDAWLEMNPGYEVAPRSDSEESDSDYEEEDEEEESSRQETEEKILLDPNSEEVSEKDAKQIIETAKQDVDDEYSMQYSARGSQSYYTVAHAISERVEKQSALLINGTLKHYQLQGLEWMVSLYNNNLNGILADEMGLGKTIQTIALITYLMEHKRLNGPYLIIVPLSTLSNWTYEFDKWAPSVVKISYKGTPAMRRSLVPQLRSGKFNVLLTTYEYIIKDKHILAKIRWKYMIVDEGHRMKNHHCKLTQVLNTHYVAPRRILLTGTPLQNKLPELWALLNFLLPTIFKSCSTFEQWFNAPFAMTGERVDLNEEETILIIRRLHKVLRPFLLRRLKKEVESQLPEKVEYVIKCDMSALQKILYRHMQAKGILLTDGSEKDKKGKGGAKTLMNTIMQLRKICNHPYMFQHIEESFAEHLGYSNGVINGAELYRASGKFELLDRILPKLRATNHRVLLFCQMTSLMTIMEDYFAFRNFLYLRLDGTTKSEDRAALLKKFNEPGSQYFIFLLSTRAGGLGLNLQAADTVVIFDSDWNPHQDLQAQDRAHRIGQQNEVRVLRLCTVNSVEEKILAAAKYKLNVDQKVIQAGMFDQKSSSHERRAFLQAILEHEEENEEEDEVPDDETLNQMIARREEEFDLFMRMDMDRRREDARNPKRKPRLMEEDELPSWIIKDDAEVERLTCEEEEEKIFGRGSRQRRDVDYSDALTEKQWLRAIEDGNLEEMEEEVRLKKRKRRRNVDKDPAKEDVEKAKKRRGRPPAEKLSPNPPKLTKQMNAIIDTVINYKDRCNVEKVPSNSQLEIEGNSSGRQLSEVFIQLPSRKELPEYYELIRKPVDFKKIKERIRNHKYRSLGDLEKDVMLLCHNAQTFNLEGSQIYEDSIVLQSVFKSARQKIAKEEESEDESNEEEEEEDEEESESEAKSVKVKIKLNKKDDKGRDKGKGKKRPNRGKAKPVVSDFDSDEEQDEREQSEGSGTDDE
observation_type: Dmax

Record excerpt, results attached:
[[record]]
molecule = "Cc1nc(CN2CCC(c3ccc4c(c3)C(=O)N([C@H]3CCC(=O)NC3=O)C4)CC2)cnc1O[C@H]1CN2c3cc(-c4cccc(F)c4O)nnc3NC[C@]2(C(F)F)C1 [Example 91]"
observation_type = "Dmax"
obs_value = "> 75%"

[[record]]
molecule = "Cc1cc(O[C@@H]2C[C@@H]3CNc4nnc(-c5cc(F)cc(F)c5O)cc4N3C2)c(C)cc1CN1CCN(c2ccc3c(c2)C(=O)N(C2CCC(=O)NC2=O)C3)CC1 (some centres unmarked) [Example 9]"
observation_type = "Dmax"
obs_value = "> 75%"

[[record]]
molecule = "O=C1CCC(N2Cc3ccc(N4CCN(Cc5cnc(O[C@H]6CN7c8cc(-c9cccc(F)c9O)nnc8NC[C@@]7(CF)C6)c(F)c5)CC4)cc3C2=O)C(=O)N1 (some centres unmarked) [Example 70]"
observation_type = "Dmax"
obs_value = "> 75%"

[[record]]
molecule = "Cc1cc(CN2CCC(c3ccc4c(c3)C(=O)N([C@H]3CCC(=O)NC3=O)C4)CC2)ncc1O[C@H]1CN2c3cc(-c4cccc(F)c4O)nnc3NC[C@]2(C(F)F)C1 [Example 92]"
observation_type = "Dmax"
obs_value = "> 75%"


[ask] Please give the measured Dmax for this molecule: Cc1cc(S[C@@H]2C[C@@H]3CNc4nnc(-c5cc(F)cc(F)c5O)cc4N3C2)ncc1CN1CCN(c2ccc3c(c2)C(=O)N([C@H]2CCC(=O)NC2=O)C3)CC1 [Example 38]
[reply] > 75%

[ask] Another: Cc1nc(O[C@@H]2C[C@@H]3CNc4nnc(-c5cc(F)cc(F)c5O)cc4N3C2)ccc1CN1CCN(c2ccc3c(c2)C(=O)N([C@H]2CCC(=O)NC2=O)C3)CC1 [Example 30]
[reply] > 75%

[ask] What do you get for Cc1nc(O[C@H]2CN3c4cc(-c5cccc(F)c5O)nnc4NC[C@@]3(C)C2)nc(C)c1CN1CCC(c2ccc3c(c2)C(=O)N([C@H]2CCC(=O)NC2=O)C3)CC1 [Example 78] ?
[reply] > 75%

[ask] Consider next the molecule CC(C)c1cc(O[C@@H]2C[C@@H]3CNc4nnc(-c5cc(F)cc(F)c5O)cc4N3C2)ccc1CN1CCN(c2ccc3c(c2)C(=O)N(C2CCC(=O)NC2=O)C3)CC1 (some centres unmarked) [Example 16] in the same way.
[reply] 50 to 75%

[ask] Quick one: Cc1cc(O[C@@H]2C[C@@H]3CNc4nnc(-c5cc(F)cc(Cl)c5O)cc4N3C2)ccc1CN1CCN(c2ccc3c(c2)C(=O)N(C2CCC(=O)NC2=O)C3)CC1 (some centres unmarked) [Example 19]
[reply] > 75%

[ask] Same for CC[C@]12CNc3nnc(-c4cccc(C)c4O)cc3N1C[C@H](Oc1cc(C)c(CN3CCC(c4ccc5c(c4)C(=O)N([C@H]4CCC(=O)NC4=O)C5)CC3)cn1)C2 [Example 98]
[reply] > 75%

[ask] // repeat for C[C@@H]1CN(CC2CCN(c3ccc4c(c3)C(=O)N(C3CCC(=O)NC3=O)C4)CC2)C[C@H](C)N1C(=O)[C@@H]1C[C@@H]2CNc3nnc(-c4cccc(F)c4O)cc3N2C1 (some centres unmarked) [Example 34] and report
[reply] 50 to 75%
